target: c-KIT (Homo sapiens (Human), UniProt P10721); assay: Kinase inhibitory activity, isotopic labeling (γ-33P-ATP); assay type: biochemical; settings: compound at 10 μM
Sequence (P10721 26-976): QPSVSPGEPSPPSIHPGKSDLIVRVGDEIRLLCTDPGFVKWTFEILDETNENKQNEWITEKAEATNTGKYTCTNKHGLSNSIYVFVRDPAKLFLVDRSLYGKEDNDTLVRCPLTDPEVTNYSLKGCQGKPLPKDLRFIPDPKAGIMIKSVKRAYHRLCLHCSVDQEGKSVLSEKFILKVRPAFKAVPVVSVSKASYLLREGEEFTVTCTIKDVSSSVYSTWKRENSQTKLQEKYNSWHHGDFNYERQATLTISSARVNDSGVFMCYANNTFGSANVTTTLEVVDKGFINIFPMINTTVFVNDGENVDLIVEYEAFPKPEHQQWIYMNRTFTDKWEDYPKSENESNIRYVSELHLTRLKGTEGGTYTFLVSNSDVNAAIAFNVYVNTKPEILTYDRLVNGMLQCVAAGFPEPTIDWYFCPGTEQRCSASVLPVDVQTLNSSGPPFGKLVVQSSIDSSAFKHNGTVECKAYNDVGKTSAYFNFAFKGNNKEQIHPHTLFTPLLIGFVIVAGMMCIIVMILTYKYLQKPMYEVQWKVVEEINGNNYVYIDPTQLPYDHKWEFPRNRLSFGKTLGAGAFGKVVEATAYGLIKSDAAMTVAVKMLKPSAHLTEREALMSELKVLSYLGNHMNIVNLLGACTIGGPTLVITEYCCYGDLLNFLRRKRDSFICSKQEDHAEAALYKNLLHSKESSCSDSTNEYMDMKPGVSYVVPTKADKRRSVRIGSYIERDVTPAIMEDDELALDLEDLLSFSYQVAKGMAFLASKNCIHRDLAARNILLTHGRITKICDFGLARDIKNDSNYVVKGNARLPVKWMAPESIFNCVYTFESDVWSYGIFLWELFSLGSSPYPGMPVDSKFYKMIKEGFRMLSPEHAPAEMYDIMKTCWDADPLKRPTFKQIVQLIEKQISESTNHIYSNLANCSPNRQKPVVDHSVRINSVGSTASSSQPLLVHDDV
ENDPOINT LABEL: The kinase activity inhibitory rate (%) by the tested compounds at 10 μM c-KIT

STRUCTURE NOTATION: CN1CCN(c2ccc(Nc3ncc4nc(Nc5ccccc5)n(C5CC5)c4n3)cc2)CC1
UNIT DESCRIPTOR: %
REPORTED VALUE: 26
--
STRUCTURE NOTATION: CC(C)n1c(Nc2ccccc2)nc2cnc(Nc3ccc(C(=O)NN4CCN(C)CC4)cc3)nc21
UNIT DESCRIPTOR: %
REPORTED VALUE: 26
--
STRUCTURE NOTATION: CC(C)n1c(Nc2ccc(F)c(Cl)c2)nc2cnc(Nc3ccc(N4CCN(C)CC4)cc3)nc21
UNIT DESCRIPTOR: %
REPORTED VALUE: 87
--
STRUCTURE NOTATION: CC(C)n1c(Nc2ccc(Br)cc2)nc2cnc(Nc3ccc(N4CCN(C)CC4)cc3)nc21
UNIT DESCRIPTOR: %
REPORTED VALUE: 94
--
STRUCTURE NOTATION: CN1CCN(c2ccc(Nc3ncc4nc(Nc5ccccc5)[nH]c4n3)cc2)CC1
UNIT DESCRIPTOR: %
REPORTED VALUE: 8
--
STRUCTURE NOTATION: CC(C)n1c(Nc2ccc(F)c(Cl)c2)nc2cnc(Nc3ccc(C(=O)NN4CCN(C)CC4)cc3)nc21
UNIT DESCRIPTOR: %
REPORTED VALUE: 90
--
STRUCTURE NOTATION: C=CC(=O)Nc1cccc(Nc2ncc3nc(Nc4ccccc4)n(C(C)C)c3n2)c1
UNIT DESCRIPTOR: %
REPORTED VALUE: 63
--
STRUCTURE NOTATION: CC(C)n1c(Nc2cccc(C(F)(F)F)c2)nc2cnc(Nc3ccc(N4CCN(C)CC4)cc3)nc21
UNIT DESCRIPTOR: %
REPORTED VALUE: 62
--
STRUCTURE NOTATION: CN1CCN(c2ccc(Nc3ncc4nc(Nc5ccccc5)n(C)c4n3)cc2)CC1
UNIT DESCRIPTOR: %
REPORTED VALUE: 48
--
STRUCTURE NOTATION: CC(C)n1c(Nc2ccc(NC(=O)Nc3ccc(F)c(Cl)c3)cc2)nc2cnc(Nc3ccc(N4CCN(C)CC4)cc3)nc21
UNIT DESCRIPTOR: %
REPORTED VALUE: 101
--
STRUCTURE NOTATION: C#Cc1cccc(Nc2nc3cnc(Nc4ccc(N5CCN(C)CC5)cc4)nc3n2C(C)C)c1
UNIT DESCRIPTOR: %
REPORTED VALUE: 82
--
STRUCTURE NOTATION: CC(C)n1c(Nc2cccnc2)nc2cnc(Nc3ccc(N4CCN(C)CC4)cc3)nc21
UNIT DESCRIPTOR: %
REPORTED VALUE: 36
--
STRUCTURE NOTATION: COc1cccc(Nc2nc3cnc(Nc4ccc(N5CCN(C)CC5)cc4)nc3n2C(C)C)c1
UNIT DESCRIPTOR: %
REPORTED VALUE: 89
--
STRUCTURE NOTATION: CC(C)n1c(Nc2ccc(OCc3cccc(F)c3)c(Cl)c2)nc2cnc(Nc3ccc(N4CCN(C)CC4)cc3)nc21
UNIT DESCRIPTOR: %
REPORTED VALUE: 12
--
STRUCTURE NOTATION: CN1CCN(c2ccc(Nc3ncc4nc(Nc5ccccc5)n(C5CCCC5)c4n3)cc2)CC1
UNIT DESCRIPTOR: %
REPORTED VALUE: 94
--
STRUCTURE NOTATION: CC(C)n1c(Nc2ccccc2)nc2cnc(Nc3ccc(C(=O)NC4CCN(C)CC4)cc3)nc21
UNIT DESCRIPTOR: %
REPORTED VALUE: 96
--
STRUCTURE NOTATION: CC(C)n1c(Nc2ccc(C(F)(F)F)cc2)nc2cnc(Nc3ccc(N4CCN(C)CC4)cc3)nc21
UNIT DESCRIPTOR: %
REPORTED VALUE: 93
--
STRUCTURE NOTATION: CC(C)n1c(Nc2cccc(Br)c2)nc2cnc(Nc3ccc(N4CCN(C)CC4)cc3)nc21
UNIT DESCRIPTOR: %
REPORTED VALUE: 67

----------
Reported IC50 by item:
test system: non-small cell lung carcinoma cell strain HCC827; experiment: In-vitro tumor cell proliferation inhibition, MTT; format: cell-based, human; settings: 72 hours
ENDPOINT LABEL: IC50 (nM)

STRUCTURE NOTATION: COCCOc1ccc(Nc2ncc3nc(Nc4ccccc4)n(C4CCCC4)c3n2)cc1
UNIT DESCRIPTOR: nM
REPORTED VALUE: 0.6
--
STRUCTURE NOTATION: CCN1CCN(Cc2ccc(Nc3ncc4nc(Nc5ccccc5)n(C5CCCC5)c4n3)cc2)CC1
UNIT DESCRIPTOR: nM
REPORTED VALUE: 0.2
--
STRUCTURE NOTATION: CN1CCN(c2ccc(Nc3ncc4nc(Nc5ccc(F)c(Cl)c5)n(C5CCCC5)c4n3)cc2)CC1
UNIT DESCRIPTOR: nM
REPORTED VALUE: 0.2
--
STRUCTURE NOTATION: Cc1cccc(Nc2nc3cnc(Nc4ccc(N5CCN(C)CC5)cc4)nc3n2C2CCCC2)c1
UNIT DESCRIPTOR: nM
REPORTED VALUE: 0.2
--
STRUCTURE NOTATION: CC(C)n1c(Nc2cccc(C(F)(F)F)c2)nc2cnc(Nc3ccc(N4CCN(C)CC4)cc3)nc21
UNIT DESCRIPTOR: nM
REPORTED VALUE: 0.2
--
STRUCTURE NOTATION: CN1CCN(c2ccc(Nc3ncc4nc(Nc5ccccc5)n(C)c4n3)cc2)CC1
UNIT DESCRIPTOR: nM
REPORTED VALUE: 0.2
--
STRUCTURE NOTATION: Cc1nc(Nc2ccc(N3CCN(C)CC3)cc2)nc2c1nc(Nc1ccccc1)n2C(C)C
UNIT DESCRIPTOR: nM
REPORTED VALUE: 63.1
--
STRUCTURE NOTATION: CC(C)n1c(Nc2ccccc2)nc2cnc(Nc3ccc(C(=O)NN4CCN(C)CC4)cc3)nc21
UNIT DESCRIPTOR: nM
REPORTED VALUE: 2

----------
test system: non-small cell lung carcinoma cell strain HCC827; experiment: In-vitro tumor cell proliferation inhibition, MTT; type: cell-based, human; conditions: 72 hours
Reported IC50 by item:
ENDPOINT LABEL: IC50 (nM)

STRUCTURE NOTATION: CN1CCN(c2ccc(Nc3ncc4nc(Nc5ccc(Br)cc5F)n(C5CCCC5)c4n3)cc2)CC1
ASSAYED TARGET: non-small cell lung carcinoma cell strain HCC827
CENSORING QUALIFIER: =
REPORTED VALUE: 0.3
//
STRUCTURE NOTATION: CN1CCN(c2ccc(Nc3ncc4nc(NCc5ccccc5)n(C5CCCC5)c4n3)cc2)CC1
ASSAYED TARGET: non-small cell lung carcinoma cell strain HCC827
CENSORING QUALIFIER: =
REPORTED VALUE: 0.2
//
STRUCTURE NOTATION: CC(C)n1c(Nc2ccc(C(F)(F)F)cc2)nc2cnc(Nc3ccc(N4CCN(C)CC4)cc3)nc21
ASSAYED TARGET: non-small cell lung carcinoma cell strain HCC827
CENSORING QUALIFIER: =
REPORTED VALUE: 82.3
//
STRUCTURE NOTATION: CC(C)n1c(Nc2cccnc2)nc2cnc(Nc3ccc(N4CCN(C)CC4)cc3)nc21
ASSAYED TARGET: non-small cell lung carcinoma cell strain HCC827
CENSORING QUALIFIER: =
REPORTED VALUE: 7.2
//
STRUCTURE NOTATION: CC(C)n1c(Nc2ccc(C(=O)Nc3cccc(F)c3)cc2)nc2cnc(Nc3ccc(N4CCN(C)CC4)cc3)nc21
ASSAYED TARGET: non-small cell lung carcinoma cell strain HCC827
CENSORING QUALIFIER: >
REPORTED VALUE: 1000
//
STRUCTURE NOTATION: CN1CCN(NC(=O)c2ccc(Nc3ncc4nc(Nc5cccnc5)n(C5CCCC5)c4n3)cc2)CC1
ASSAYED TARGET: non-small cell lung carcinoma cell strain HCC827
CENSORING QUALIFIER: =
REPORTED VALUE: 130
//
STRUCTURE NOTATION: C=CC(=O)Nc1cccc(Nc2ncc3nc(Nc4ccccc4)n(C(C)C)c3n2)c1
ASSAYED TARGET: non-small cell lung carcinoma cell strain HCC827
CENSORING QUALIFIER: =
REPORTED VALUE: 0.5
//
STRUCTURE NOTATION: CN1CCN(c2ccc(Nc3ncc4nc(Nc5cc(F)ccc5F)n(C5CCCC5)c4n3)cc2)CC1
ASSAYED TARGET: non-small cell lung carcinoma cell strain HCC827
CENSORING QUALIFIER: =
REPORTED VALUE: 0.2
//
STRUCTURE NOTATION: CN1CCN(c2ccc(Nc3ncc4nc(Nc5cccc([N+](=O)[O-])c5)n(C5CCCC5)c4n3)cc2)CC1
ASSAYED TARGET: non-small cell lung carcinoma cell strain HCC827
CENSORING QUALIFIER: =
REPORTED VALUE: 0.3
//
STRUCTURE NOTATION: CC(C)n1c(Nc2ccc(F)c(Cl)c2)nc2cnc(Nc3ccc(C(=O)NN4CCN(C)CC4)cc3)nc21
ASSAYED TARGET: non-small cell lung carcinoma cell strain HCC827
CENSORING QUALIFIER: =
REPORTED VALUE: 1.3
//
STRUCTURE NOTATION: CN1CCN(c2ccc(Nc3ncc4nc(Nc5ccccc5)[nH]c4n3)cc2)CC1
ASSAYED TARGET: non-small cell lung carcinoma cell strain HCC827
CENSORING QUALIFIER: =
REPORTED VALUE: 52.8
//
STRUCTURE NOTATION: c1ccc(Nc2nc3cnc(Nc4ccc(CN5CCOCC5)cc4)nc3n2C2CCCC2)cc1
ASSAYED TARGET: non-small cell lung carcinoma cell strain HCC827
CENSORING QUALIFIER: =
REPORTED VALUE: 0.2
